Target: Solute carrier family 22 member 1 (Rattus norvegicus, UniProt Q63089)
Sequence (Q63089 whole entry): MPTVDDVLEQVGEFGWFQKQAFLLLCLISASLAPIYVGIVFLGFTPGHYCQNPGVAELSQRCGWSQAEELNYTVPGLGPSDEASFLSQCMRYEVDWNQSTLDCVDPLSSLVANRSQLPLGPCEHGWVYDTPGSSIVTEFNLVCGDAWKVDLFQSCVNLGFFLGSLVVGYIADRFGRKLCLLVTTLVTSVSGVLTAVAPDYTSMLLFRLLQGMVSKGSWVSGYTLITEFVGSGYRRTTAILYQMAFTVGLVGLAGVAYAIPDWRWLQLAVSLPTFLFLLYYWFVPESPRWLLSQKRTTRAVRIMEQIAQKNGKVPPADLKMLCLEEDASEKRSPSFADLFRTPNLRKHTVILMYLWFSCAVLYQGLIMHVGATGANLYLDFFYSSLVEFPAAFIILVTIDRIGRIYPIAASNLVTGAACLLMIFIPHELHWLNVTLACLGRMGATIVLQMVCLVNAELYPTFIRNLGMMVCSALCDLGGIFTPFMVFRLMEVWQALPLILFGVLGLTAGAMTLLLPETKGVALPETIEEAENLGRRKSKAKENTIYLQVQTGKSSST
Assay details: TP_TRANSPORTER: inhibition of uptake of 0.1 uM MPP+ in OCT1-expressing 293 cells
Assay type: functional, cell-based, HEK293
Recorded endpoint: pKi
Scale for pKi: -log10 of concentration given in mol/L; no unit attached.

Data request: Reported pKi for Solute carrier family 22 member 1 (Rattus norvegicus, UniProt Q63089), given "N=C(N)NCCCCN" ?
Data returned: 2.07
